Attribution: the RNAGym collection of RNA variant scans (doi:10.1093/nar/gkz1192)

B1: CPEB3 Ribozyme (parent)
chain: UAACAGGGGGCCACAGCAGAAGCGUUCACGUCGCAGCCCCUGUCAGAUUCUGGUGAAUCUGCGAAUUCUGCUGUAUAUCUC

Variants of: B1
assay-notes: self-cleavage, relative activity (ratio to wild type); higher = more cleavage; in vitro, sequencing
# self-cleavage >= 0.3 gives TRUE, anything below gives FALSE

{"mutation-descriptor": "A3G U43A", "class-name": "TRUE"}
{"mutation-descriptor": "A20G U67G", "class-name": "FALSE"}
{"mutation-descriptor": "A13G U74C", "class-name": "TRUE"}
{"mutation-descriptor": "C37G U80A", "class-name": "TRUE"}
{"mutation-descriptor": "G6A U60A", "class-name": "TRUE"}
{"mutation-descriptor": "A18U G42C", "class-name": "FALSE"}
{"mutation-descriptor": "G33A U60A", "class-name": "FALSE"}
{"mutation-descriptor": "A5U U51A", "class-name": "TRUE"}
{"mutation-descriptor": "U51C U78A", "class-name": "TRUE"}
{"mutation-descriptor": "U54G", "class-name": "TRUE"}
{"mutation-descriptor": "G8U U74G", "class-name": "FALSE"}
{"mutation-descriptor": "C62U G73U", "class-name": "FALSE"}
{"mutation-descriptor": "U54A C62U", "class-name": "FALSE"}
{"mutation-descriptor": "U31C U78A", "class-name": "TRUE"}
{"mutation-descriptor": "A21G U60A", "class-name": "TRUE"}
{"mutation-descriptor": "U49A U69A", "class-name": "TRUE"}
{"mutation-descriptor": "C27A U78C", "class-name": "FALSE"}
{"mutation-descriptor": "G33U U51C", "class-name": "FALSE"}
{"mutation-descriptor": "C11G U41C", "class-name": "TRUE"}
{"mutation-descriptor": "U49G U54C", "class-name": "TRUE"}
{"mutation-descriptor": "G19A U69C", "class-name": "FALSE"}
{"mutation-descriptor": "U1C C81G", "class-name": "TRUE"}
{"mutation-descriptor": "U1C C23U", "class-name": "TRUE"}
{"mutation-descriptor": "G19U U78C", "class-name": "TRUE"}
{"mutation-descriptor": "A45U G61A", "class-name": "TRUE"}
{"mutation-descriptor": "G30A C68U", "class-name": "FALSE"}
{"mutation-descriptor": "A15G C44A", "class-name": "FALSE"}
{"mutation-descriptor": "A13G G52U", "class-name": "TRUE"}
{"mutation-descriptor": "U43C C50U", "class-name": "FALSE"}
{"mutation-descriptor": "A3G A5U", "class-name": "TRUE"}
{"mutation-descriptor": "G30A U74A", "class-name": "FALSE"}
{"mutation-descriptor": "U41C C81U", "class-name": "TRUE"}
{"mutation-descriptor": "A15G G70C", "class-name": "FALSE"}
{"mutation-descriptor": "U51A G52A", "class-name": "TRUE"}
{"mutation-descriptor": "C32G U78C", "class-name": "FALSE"}
{"mutation-descriptor": "A35U A75U", "class-name": "TRUE"}
{"mutation-descriptor": "A13G C38U", "class-name": "TRUE"}
{"mutation-descriptor": "A5G G33A", "class-name": "FALSE"}
{"mutation-descriptor": "C4U U51C", "class-name": "TRUE"}
{"mutation-descriptor": "A65G U66C", "class-name": "FALSE"}
{"mutation-descriptor": "C39G U48A", "class-name": "FALSE"}
{"mutation-descriptor": "C39A U69C", "class-name": "FALSE"}
{"mutation-descriptor": "A65G U76A", "class-name": "TRUE"}
{"mutation-descriptor": "A2G A13G", "class-name": "TRUE"}
{"mutation-descriptor": "G33A", "class-name": "FALSE"}
{"mutation-descriptor": "G24C U25A", "class-name": "FALSE"}
{"mutation-descriptor": "C14A G70U", "class-name": "FALSE"}
{"mutation-descriptor": "C39U U49C", "class-name": "TRUE"}
{"mutation-descriptor": "G33A A35U", "class-name": "FALSE"}
{"mutation-descriptor": "U1C C32A", "class-name": "FALSE"}
{"mutation-descriptor": "U51C A77C", "class-name": "TRUE"}
{"mutation-descriptor": "G24U U80C", "class-name": "TRUE"}
{"mutation-descriptor": "G9A U31A", "class-name": "FALSE"}
{"mutation-descriptor": "A3U G7C", "class-name": "TRUE"}
{"mutation-descriptor": "C32U U67C", "class-name": "FALSE"}
{"mutation-descriptor": "A15G C79A", "class-name": "TRUE"}
{"mutation-descriptor": "A3U A77U", "class-name": "TRUE"}
{"mutation-descriptor": "A20G G63C", "class-name": "TRUE"}
{"mutation-descriptor": "U26C A77U", "class-name": "TRUE"}
{"mutation-descriptor": "C14U A57C", "class-name": "TRUE"}
{"mutation-descriptor": "C50U A77G", "class-name": "TRUE"}
{"mutation-descriptor": "U31C U67A", "class-name": "TRUE"}
{"mutation-descriptor": "G7A U67C", "class-name": "FALSE"}
{"mutation-descriptor": "G16C U60C", "class-name": "FALSE"}
{"mutation-descriptor": "G16U U49G", "class-name": "FALSE"}
{"mutation-descriptor": "G9U A35G", "class-name": "TRUE"}
{"mutation-descriptor": "A45G G63A", "class-name": "TRUE"}
{"mutation-descriptor": "C32G U41G", "class-name": "FALSE"}
{"mutation-descriptor": "G19U U58C", "class-name": "TRUE"}
{"mutation-descriptor": "A2G C32A", "class-name": "FALSE"}
{"mutation-descriptor": "G7C G9U", "class-name": "TRUE"}
{"mutation-descriptor": "G9A C37U", "class-name": "FALSE"}
{"mutation-descriptor": "A20U C68U", "class-name": "FALSE"}
{"mutation-descriptor": "U31C U54C", "class-name": "TRUE"}
{"mutation-descriptor": "U25C U67A", "class-name": "FALSE"}
{"mutation-descriptor": "A28G U51A", "class-name": "TRUE"}
{"mutation-descriptor": "A2G U26A", "class-name": "TRUE"}
{"mutation-descriptor": "U1A U43C", "class-name": "TRUE"}
{"mutation-descriptor": "C44U U48C", "class-name": "TRUE"}
{"mutation-descriptor": "C4U U58C", "class-name": "TRUE"}
{"mutation-descriptor": "A21U C23A", "class-name": "FALSE"}
{"mutation-descriptor": "C12U G46A", "class-name": "TRUE"}
{"mutation-descriptor": "A45G A57G", "class-name": "TRUE"}
{"mutation-descriptor": "A5G G55C", "class-name": "TRUE"}
{"mutation-descriptor": "U51A C71U", "class-name": "TRUE"}
{"mutation-descriptor": "C12U A15G", "class-name": "TRUE"}
{"mutation-descriptor": "C38U A56G", "class-name": "TRUE"}
{"mutation-descriptor": "G10A U48C", "class-name": "FALSE"}
{"mutation-descriptor": "A2C A64U", "class-name": "FALSE"}
{"mutation-descriptor": "G6A U43C", "class-name": "FALSE"}
{"mutation-descriptor": "C62U A77U", "class-name": "FALSE"}
